experimental_system: Androgen receptor (Homo sapiens, UniProt P10275, T878A)
Sequence (P10275 whole entry T878A): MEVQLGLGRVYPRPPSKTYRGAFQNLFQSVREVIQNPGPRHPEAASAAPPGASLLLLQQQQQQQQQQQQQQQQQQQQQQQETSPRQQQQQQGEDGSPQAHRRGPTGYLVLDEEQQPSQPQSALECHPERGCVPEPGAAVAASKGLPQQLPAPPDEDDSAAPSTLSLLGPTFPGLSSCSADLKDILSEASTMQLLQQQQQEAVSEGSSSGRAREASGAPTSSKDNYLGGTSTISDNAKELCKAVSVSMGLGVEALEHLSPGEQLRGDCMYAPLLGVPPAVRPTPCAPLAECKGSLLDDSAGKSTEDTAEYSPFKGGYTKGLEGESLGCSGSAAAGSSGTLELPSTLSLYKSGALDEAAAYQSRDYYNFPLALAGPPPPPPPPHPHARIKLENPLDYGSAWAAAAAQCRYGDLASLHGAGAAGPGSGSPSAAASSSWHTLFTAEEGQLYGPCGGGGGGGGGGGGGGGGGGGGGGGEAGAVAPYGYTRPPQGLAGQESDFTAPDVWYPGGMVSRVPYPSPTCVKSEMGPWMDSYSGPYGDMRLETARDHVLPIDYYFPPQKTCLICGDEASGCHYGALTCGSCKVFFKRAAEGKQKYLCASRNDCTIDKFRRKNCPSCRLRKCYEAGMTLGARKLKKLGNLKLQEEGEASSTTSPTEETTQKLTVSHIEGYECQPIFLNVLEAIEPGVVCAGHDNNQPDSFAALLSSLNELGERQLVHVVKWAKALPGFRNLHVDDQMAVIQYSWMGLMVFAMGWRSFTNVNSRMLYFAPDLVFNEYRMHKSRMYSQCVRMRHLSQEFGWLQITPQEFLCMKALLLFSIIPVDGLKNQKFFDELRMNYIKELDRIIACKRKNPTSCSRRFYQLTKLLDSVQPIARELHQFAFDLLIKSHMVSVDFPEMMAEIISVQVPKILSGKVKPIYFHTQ
assay_procedure: biochemical
reported_endpoint: pKi
Please express pKi as -log10 of the molar concentration.

Entry O=C1[C@@H]2C3CCCC(CC3)[C@@H]2C(=O)N1c1cccc(C(F)(F)F)c1 , system Androgen receptor (Homo sapiens, UniProt P10275, T878A): what pKi was measured?
7.70

Entry Cc1cc(N2C(=O)[C@@H]3C4C=CC(CC4)[C@@H]3C2=O)ccc1Br , system Androgen receptor (Homo sapiens, UniProt P10275, T878A): what pKi was measured?
11.00

Entry O=C1[C@@H]2C3C=CC([C@H]4C[C@@H]34)[C@@H]2C(=O)N1c1cccc(C(F)(F)F)c1 , system Androgen receptor (Homo sapiens, UniProt P10275, T878A): what pKi was measured?
8.05

Entry O=C1[C@@H]2C3C=CC(CC3)[C@@H]2C(=O)N1c1ccc([N+](=O)[O-])c2ccccc12 , system Androgen receptor (Homo sapiens, UniProt P10275, T878A): what pKi was measured?
9.30

Entry O=C1[C@@H]2C3C=CC(C3)[C@@H]2C(=O)N1c1ccc(Cl)c(Cl)c1 , system Androgen receptor (Homo sapiens, UniProt P10275, T878A): what pKi was measured?
8.22

Entry Cc1cc(N2C(=O)[C@@H]3C4C=CC([C@H](O)[C@@H]4O)[C@@H]3C2=O)ccc1Br , system Androgen receptor (Homo sapiens, UniProt P10275, T878A): what pKi was measured?
7.48

Entry O=C1[C@@H]2C3C=CC(CC3)[C@@H]2C(=O)N1c1ccc(Cl)c(Cl)c1 , system Androgen receptor (Homo sapiens, UniProt P10275, T878A): what pKi was measured?
7.55

Entry O=C1[C@@H]2C3C=CC(CC3)[C@@H]2C(=O)N1c1cccc(C(F)(F)F)c1 , system Androgen receptor (Homo sapiens, UniProt P10275, T878A): what pKi was measured?
7.72

Entry CN1C(=O)C2C=CC1[C@@H]1C(=O)N(c3ccc([N+](=O)[O-])c4ccccc34)C(=O)[C@H]21 (some centres undefined) , system Androgen receptor (Homo sapiens, UniProt P10275, T878A): what pKi was measured?
6.94

====

Target or system Androgen receptor (Homo sapiens): recorded IC50 listed per item.
Give your result in nM as a bare value.

>>> assay_value("O=C1[C@@H]2C3C=CC(C3)[C@@H]2C(=O)N1c1ccc(Cl)c(Cl)c1")
307
>>> assay_value("Cc1cc(N2C(=O)[C@@H]3C4C=CC(CC4)[C@@H]3C2=O)ccc1Br")
68

Which measured IC50 value corresponds to O=C1[C@@H]2C3C=CC([C@H]4C[C@@H]34)[C@@H]2C(=O)N1c1ccc([N+](=O)[O-])c2ccccc12 ?
786

====

experimental_system: Androgen receptor (Homo sapiens, UniProt P10275, T878A)
assay_procedure: Inhibition of mutant T877A Androgen receptor in human LNCaP cells
Format: cell-based
reported_endpoint: IC50 (nM)
Give your result in nM as a bare value.

>>> assay_value("O=C1[C@@H]2C3C=CC(C3)[C@@H]2C(=O)N1c1ccc(Cl)c(Cl)c1")
41
>>> assay_value("O=C1[C@@H]2C3C=CC([C@H]4C[C@@H]34)[C@@H]2C(=O)N1c1cccc(C(F)(F)F)c1")
30
>>> assay_value("Cc1cc(N2C(=O)[C@@H]3C4C=CC([C@H](O)[C@@H]4O)[C@@H]3C2=O)ccc1Br")
59
>>> assay_value("O=C1[C@@H]2C3CCCC(CC3)[C@@H]2C(=O)N1c1cccc(C(F)(F)F)c1")
23
>>> assay_value("CN1C(=O)C2C=CC1[C@@H]1C(=O)N(c3ccc([N+](=O)[O-])c4ccccc34)C(=O)[C@H]21 (stereo partly specified)")
631

Okay, now this compound:
Which measured IC50 value corresponds to O=C1[C@@H]2C3C=CC(CC3)[C@@H]2C(=O)N1c1cccc(C(F)(F)F)c1 ?
66

====

Target or system Androgen receptor (Homo sapiens, UniProt P10275): recorded pIC50 listed per item.
Please express pIC50 as -log10 of the molar concentration.

These recorded examples may help you get a feel for the data.
>>> assay_value("Cc1cc(N2C(=O)[C@@H]3C4C=CC([C@H](O)[C@@H]4O)[C@@H]3C2=O)ccc1Br")
5.28
>>> assay_value("CN1C(=O)C2C=CC1[C@@H]1C(=O)N(c3ccc([N+](=O)[O-])c4ccccc34)C(=O)[C@H]21 (stereo partly drawn)")
5.39
>>> assay_value("O=C1[C@@H]2C3C=CC(CC3)[C@@H]2C(=O)N1c1ccc(Cl)c(Cl)c1")
6.82
>>> assay_value("O=C1[C@@H]2C3C=CC(CC3)[C@@H]2C(=O)N1c1cccc(C(F)(F)F)c1")
6.71
>>> assay_value("O=C1[C@@H]2C3C=CC(CC3)[C@@H]2C(=O)N1c1ccc([N+](=O)[O-])c2ccccc12")
6.65
>>> assay_value("O=C1[C@@H]2C3CCCC(CC3)[C@@H]2C(=O)N1c1cccc(C(F)(F)F)c1")
6.18

Entry O=C1[C@@H]2C3C=CC(CCC3)[C@@H]2C(=O)N1c1ccc([N+](=O)[O-])c2ccccc12 , system Androgen receptor (Homo sapiens, UniProt P10275): what pIC50 was measured?
7.31

Entry O=C1[C@@H]2C3C=CC([C@H]4C[C@@H]34)[C@@H]2C(=O)N1c1cccc(C(F)(F)F)c1 , system Androgen receptor (Homo sapiens, UniProt P10275): what pIC50 was measured?
5.77
